- Protocol notes: amyloid nucleation score (Sup35N fusion, yeast selection) (log enrichment); library NNK3; higher = more nucleation; inactive = no reads after selection;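 further: zero at mode of non-aggregating sequences after 7 days selection at 30°C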

{"columns": ["Substance", "amyloid nucleation score"],
 "data": [
  ["CVASGCTVKACFYSMREDRY", 1.53],
  ["LIRAVGFGGWILIAHWYIWN", "inactive"],
  ["VPLTRSKYYFRSWRWIDCGG", "inactive"],
  ["RRHLITSVHQTLIVVGFDPR", "inactive"],
  ["PHTWGGR", "inactive"],
  ["LSVVTSTHEDASSLNTTRWM", "inactive"],
  ["PFNYVVRWESKLQSHYFGLY", "inactive"],
  ["TMSGWFNGCVYGVSAIHSSD", "inactive"],
  ["AEWWSTVCH", "inactive"],
  ["WKWVRRYVRATIRSYSKDLD", "inactive"],
  ["ILRYVLAHSVLKTCLMQGLA", "inactive"],
  ["VLSRSKRTGISNYLCNLCEI", "inactive"],
  ["NHQIVRDDRCYKLLIQAVRM", "inactive"],
  ["CCGMYYNSMASNVWSER", 2.17],
  ["VENGCGAT", "inactive"],
  ["SADITSTLGRYAFYF", "inactive"],
  ["SRYMARTSDPARYVTPVSNT", "inactive"],
  ["SPLSRTFTPTYAGDMLLNSS", "inactive"],
  ["DIYSDWLFIVLRHLVIRVLS", 0.754],
  ["EAGSVSYWFVATRPLKRACP", "inactive"],
  ["GSEMVAGHS", "inactive"],
  ["PWSCISLFNFFGITPCWTLS", 0.491],
  ["NGHKEESILCGNGYWKHASE", "inactive"],
  ["MIRWAYLCM", "inactive"],
  ["SYKSLNCALFLQ", 0.574],
  ["QITRLPSNYVYETWSEKVFY", "inactive"],
  ["HVMTHFG", "inactive"],
  ["HALGVSGRFDNNVVIFARGS", "inactive"],
  ["LLTSLDPDYSSPWCYSVDIC", "inactive"],
  ["SRSCNVLSEWRGINVNGWGN", -0.176],
  ["FRVEFTVMFLGVCTYSGDAL", -0.329],
  ["MTGDPGQFNAGDRLM", "inactive"],
  ["WCAISICQLLKRQWYLGSYV", "inactive"],
  ["CRLYEDIGISYMVATNQLEY", "inactive"],
  ["HSVASDYRTAFLLSHT", 1.39],
  ["PSRNYIVELS", "inactive"]
]}

* * *

- Protocol notes: amyloid nucleation score (Sup35N fusion, yeast selection) (log enrichment); library NNK1; higher = more nucleation; inactive = no reads after selection

{"columns": ["Substance", "amyloid nucleation score"],
 "data": [
  ["NRRCGGASSIRTGNRIWDDW", 2.22],
  ["KRLWLKLSTVE", 0.32],
  ["FTQKIFQTFFDHAYNWFSRV", 0.918],
  ["WAYYCYP", -2.01],
  ["GYNKHLGNSGSYVHQNGAQF", 1.06],
  ["RGVLFVAINW", 2.47],
  ["LFFLLLNHRAVVVLLWCHFT", -1.19],
  ["STMFYLIFCQCTSIYANLYQ", 0.063],
  ["WCHGHYHSSNEMSTI", 1.37],
  ["WELMLTTH", 0.453],
  ["SCWNSCNKMSF", 2.87],
  ["LLMVREDRRRFRSFGS", 0.773],
  ["FKPEKRLGATG", 0.694],
  ["EVIIIGRSIIVLGMGGTKFW", 1.72],
  ["SSLPRPPMPKWSDV", 0.125],
  ["IWPYLGSASVL", 1.73],
  ["LTLFLCISRLPGTPTLYWVL", 0.752]
]}

* * *

- Protocol notes: amyloid nucleation score (Sup35N fusion, yeast selection) (log enrichment); library NNK1; higher = more nucleation; inactive = no reads after selection
Below: a set of entries, each annotated with reported amyloid nucleation score.
Parameter measured: amyloid nucleation score

{"columns": ["Substance", "Parameter measured", "Result value"],
 "data": [
  ["GTNWDMLCYIVLTYGVVRAF", "amyloid nucleation score", -0.116],
  ["PICCLLQLLGDSGWMCCSAW", "amyloid nucleation score", 6.54],
  ["DNYVMWVLEGLSYVLGNNRI", "amyloid nucleation score", -0.087],
  ["SSLGNEFIFDSFGNK", "amyloid nucleation score", -0.772],
  ["TFPGEWHWERTIVIVPNFFH", "amyloid nucleation score", 2.03],
  ["LAYGWKFDNSCLL", "amyloid nucleation score", 1.29],
  ["VVLPRLRGNLVCDEIES", "amyloid nucleation score", 2.07],
  ["PRVIELARLVRLRKTKVYML", "amyloid nucleation score", -0.013],
  ["GNNRCDVIIMVFFK", "amyloid nucleation score", 1.7],
  ["ILMLKH", "amyloid nucleation score", -0.484],
  ["GRTAQAVRGGRAVVYAGLKL", "amyloid nucleation score", -0.157],
  ["GDVFVYSDDWGDGVNGSGGR", "amyloid nucleation score", -1.96],
  ["VAVVLYAQTV", "amyloid nucleation score", -0.376],
  ["FMRDCSYI", "amyloid nucleation score", 0.687],
  ["YLVPELYEMSNS", "amyloid nucleation score", 1.38],
  ["LWVFRCARLKVWQPRKGWGQ", "amyloid nucleation score", 0.844],
  ["NWELRRVTRKWRSGDTSLSD", "amyloid nucleation score", -2.04],
  ["KLWPSMSFLNCLWCIRERQL", "amyloid nucleation score", 4.48],
  ["IHNNRVGVYCILNNTQRVE", "amyloid nucleation score", 0.2],
  ["SFYCSHEVYLCNALYIDRVR", "amyloid nucleation score", 3.67],
  ["LGLRFTCRLFGCIYTRASIM", "amyloid nucleation score", -0.735],
  ["RLARWPEPLIRCFAS", "amyloid nucleation score", 0.594],
  ["HTKTLAFHIILTIILRCMFL", "amyloid nucleation score", 0.713],
  ["WSVSASQFRSVPRSPFALSQ", "amyloid nucleation score", -0.303],
  ["ISLGCNDSGLRIG", "amyloid nucleation score", -0.935],
  ["VRHDITARERLSGLWQ", "amyloid nucleation score", -0.047],
  ["DLPLGQRYSCAQVGGWSYYE", "amyloid nucleation score", 0.556],
  ["FFRTLTWR", "amyloid nucleation score", 1.11],
  ["KIPYVFFGKRTGVSLFRMFD", "amyloid nucleation score", 0.202],
  ["CDNDSMWGYCLTTRMGRFTA", "amyloid nucleation score", -0.379],
  ["SYVKDNISVSGADILTGAIC", "amyloid nucleation score", -0.367],
  ["SNVMWFYSWMWVRVTRRTCL", "amyloid nucleation score", 1.71],
  ["CGAYRMWQYKASRGTHWPYT", "amyloid nucleation score", -0.182],
  ["CRLDGT", "amyloid nucleation score", -0.36],
  ["ERLGLRRFTIIISRQAQV", "amyloid nucleation score", 0.03],
  ["NELNLYGSEFAFYWVDKLCH", "amyloid nucleation score", 4.13],
  ["ESVLWVFYV", "amyloid nucleation score", 0.1],
  ["ELKRGVHLRPE", "amyloid nucleation score", 4.36],
  ["PYPYAISRYVFMVSNSDMFM", "amyloid nucleation score", 4.53],
  ["LGCSFR", "amyloid nucleation score", -0.065],
  ["FHLVRGCIFITCKYVGRGIV", "amyloid nucleation score", 1.32],
  ["YHWVMTASVCSPGELNYRSN", "amyloid nucleation score", 0.363],
  ["CFQPWKNLKAY", "amyloid nucleation score", -0.67],
  ["EYGDDVLWMFSTILCVRGEW", "amyloid nucleation score", -0.626],
  ["NMTFSMPSNINCPFLGLR", "amyloid nucleation score", 0.29],
  ["GFGSRRYFRAVLSCPR", "amyloid nucleation score", 0.852],
  ["SQVGYGSRDLEFTWWCGGNG", "amyloid nucleation score", -0.278],
  ["SLLCYRRGSWGEYIMFNGRL", "amyloid nucleation score", -0.366],
  ["FNIIASPSWVSVRNHGNLWV", "amyloid nucleation score", 4.91],
  ["TCIIFIYNSWSSLQPFMSGM", "amyloid nucleation score", 2.65],
  ["MLGCVGSCTR", "amyloid nucleation score", -1.08],
  ["HSNYFPKSLYVLGLFCSTVS", "amyloid nucleation score", 6.22],
  ["RKRRVSSLPEMGHSGSEYIG", "amyloid nucleation score", 0.412],
  ["CYNTRVPFGMPLKRTPYRSR", "amyloid nucleation score", -0.509],
  ["LSLGLSGLVQPSDGTVG", "amyloid nucleation score", -0.284],
  ["NSASYII", "amyloid nucleation score", -0.048],
  ["NFLCFGFFRWTVPDWAQFYV", "amyloid nucleation score", 3.76],
  ["GGLGRYWTTHE", "amyloid nucleation score", 0.436],
  ["RGCMAQDSNLYKHVSARTGD", "amyloid nucleation score", -0.179],
  ["FCELELMVHVVMPFKAVS", "amyloid nucleation score", 0.831],
  ["QPSGLGAECYM", "amyloid nucleation score", 0.423],
  ["GWVLCRGSLFIWWFWTSLRL", "amyloid nucleation score", -0.106],
  ["MMGIMYLWTWYCN", "amyloid nucleation score", 0.385],
  ["AGHSCQSTMTGCYTFHSYVW", "amyloid nucleation score", -0.102],
  ["VCLPSGLFINLGVWYAAQHH", "amyloid nucleation score", 6.51],
  ["LEKINQVSGLDFRRIEFEPS", "amyloid nucleation score", -0.172],
  ["EIGYMGLSVSIFRCVWLFIF", "amyloid nucleation score", 0.056]
]}

Data origin, for the record: the supplement of paper PMC12042874
